Test system: iCell cardiomyocytes (human iPSC-derived cardiomyocytes)
procedure-details: Intracellular Ca2+ flux / beating parameters in iCell cardiomyocytes (FLIPR tetra), 90 min or 24 h
Format: cell-based
run-parameters: Homo sapiens, Cardiomyocyte, 1.5 h, 1.00 µM; 0.00 µM = 100.00; read-out: cm.decay.rise.90min

| molecule | endpoint-unit | activity at 1 µM |
| --- | --- | --- |
| Clc1ccc(-c2ccccc2)cc1 [PCB3] | % | 96.1 |
| Oc1ccc(O)c(-c2ccc(Cl)cc2)c1 [2',5'-DiOH PCB3] | % | 98.3 |
| Oc1cccc(-c2ccc(Cl)cc2)c1 [3'-OH PCB3] | % | 102 |
| Oc1cc(Cl)cc(-c2cccc(Cl)c2)c1 [5-OH PCB 11] | % | 98.3 |
